- ASSAY PROCEDURE: Inhibition of IDH2 R172S mutant (unknown origin)
- Parameters: species or system Homo sapiens
OBSERVABLE: IC50

| LINE NOTATION | DATA VALUE |
| --- | --- |
| C[C@H](O)c1cccc(NC(=O)c2nn(Cc3ccc(F)cc3)c3c2CN(C(=O)c2ccc[nH]2)C[C@H]3C)c1 | 1.03 µM |

----------
- Tested on: TF-1
- ASSAY PROCEDURE: Antiproliferative activity against human TF-1 cells
- Assay type: functional, cell-based
pIC50: −log10 of the molar value.
OBSERVABLE: pIC50

| COMPOUND | OBSERVABLE | DATA VALUE |
| --- | --- | --- |
| CC(C)(O)CNc1nc(Nc2ccnc(C(F)(F)F)c2)nc(-c2cccc(C(F)(F)F)n2)n1 [ENASIDENIB] | pIC50 | 7.70 |

----------
- ASSAYED SYSTEM: Isocitrate dehydrogenase [NADP], mitochondrial (Homo sapiens, UniProt P48735, R172K)
- Sequence (P48735 40-452 R172K limits assumed): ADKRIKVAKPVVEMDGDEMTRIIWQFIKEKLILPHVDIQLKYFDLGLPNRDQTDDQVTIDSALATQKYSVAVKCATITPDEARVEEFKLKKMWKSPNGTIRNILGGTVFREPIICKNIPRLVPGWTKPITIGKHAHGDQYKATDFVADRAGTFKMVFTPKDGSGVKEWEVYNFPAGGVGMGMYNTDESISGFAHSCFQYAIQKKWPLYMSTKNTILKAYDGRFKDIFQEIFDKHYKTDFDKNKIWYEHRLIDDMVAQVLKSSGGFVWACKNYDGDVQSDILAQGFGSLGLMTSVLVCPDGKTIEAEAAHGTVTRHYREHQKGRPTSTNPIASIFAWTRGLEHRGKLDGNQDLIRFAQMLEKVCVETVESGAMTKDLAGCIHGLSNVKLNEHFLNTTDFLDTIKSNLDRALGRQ
- ASSAY PROCEDURE: Inhibition of FLAG-tagged IDH2 R172K mutant (unknown origin) extracted from baculovirus infected Sf9 cells
pIC50: −log10 of the molar value.

| LINE NOTATION | ASSAYED SYSTEM | pIC50 |
| --- | --- | --- |
| CC(C)(O)CNc1nc(Nc2ccnc(C(F)(F)F)c2)nc(-c2cccc(C(F)(F)F)n2)n1 | Isocitrate dehydrogenase [NADP], mitochondrial (Homo sapiens, UniProt P48735, R172K) | 6.70 |
